experiment: yeast display, Sf9 membrane polyspecificity reagent, FACS + sequencing; frameworks hold sequencing errors
assay.readout: polyreactivity (PSR sort gate)

[[record]]
seq_string = "QVQLVESGGGLVQAGGSLRLSCAASGRTFYKYAMGWYRQAPGKERELVAAISSRGGRTYYADSVKGRFTISRDNATNTVYLQMNSLKPEDTAVYYCAAKGRPDGKYDYWGQGTQVTVSS"
assay_readout = "polyreactivity (PSR sort gate)"
recorded_measurement = "high polyreactivity"

[[record]]
seq_string = "QVQLVESGGGLVQAGGSLRLSCAASGSIFTSYAVMGWYRQAPGKERELVAVITGGGITTYADSVKGRFTISRDNAKNTVYLQMNSLKPEDTAVYYCATDGWYHSEYDYWGQGTQVTVSS"
assay_readout = "polyreactivity (PSR sort gate)"
recorded_measurement = "low polyreactivity"

[[record]]
seq_string = "QVQLVESGGGLVQAGGSLRLSCAASGNTFYGYTMGWYRQAPGKERELVAAISSRGGSTYYADSVKGRFTISRDNAKNTVYLQMISLKPEDTAVYYCAAVRPVKKFPYCYWGQGTQVTVSS"
assay_readout = "polyreactivity (PSR sort gate)"
recorded_measurement = "high polyreactivity"

[[record]]
seq_string = "QVQLVESGGGLVQAGGSLRISCAASGSTVRYYAMGWNRQAHGKERHLVARNTSRAGRTYYADSVKGRFTISRDNAKNTVYLQMNSLKPEDTAVYYCAADQSGFRWKWYIRYDYWGQGTQVTVSS"
assay_readout = "polyreactivity (PSR sort gate)"
recorded_measurement = "high polyreactivity"

[[record]]
seq_string = "QVQLVESGGGLVQAGGSLRLSCAASGSIFGGYAMGWYRQAPGKEGELVAAISWSSSSTYYADSVKGRFTMSRDNAKNTVYLQMNSLKPEDTAVYYCATGIYPQTSDYDYWGQGTQVTVSS"
assay_readout = "polyreactivity (PSR sort gate)"
recorded_measurement = "low polyreactivity"

[[record]]
seq_string = "QVQLVESGGGLVQAGGSLRLSCAASGSIFYLYAMGLYRQAPGKERELVAAITSIGGSTYADSVKGRFTISRDNAKNTVYLQMNSLKPEDTAVYYCNTDEYPLTVQVQYYYWGQGTQVTVSS"
assay_readout = "polyreactivity (PSR sort gate)"
recorded_measurement = "low polyreactivity"

[[record]]
seq_string = "QVQLVESGGGLVQAGGSLRLSCAASGRTFNGYALGGYRQAPGKERELVAAICSSGGSTYYADSVKGRFTISRDNAKNTVYLQMNSLKPEDTAVYYCAARRANGFNYWGQGTQVTVSS"
assay_readout = "polyreactivity (PSR sort gate)"
recorded_measurement = "high polyreactivity"

[[record]]
seq_string = "QVQLVESAGGLVQAGGSLRLSCAASGIIFRYYAMGWYRQAPGKERELVARITSRGGTYYADSVKGRFTISRDNAKNNVYLQMNSLKPEDTAVYYCAASYLLTHGYAYNYWGQGTQVTVSS"
assay_readout = "polyreactivity (PSR sort gate)"
recorded_measurement = "high polyreactivity"

[[record]]
seq_string = "HVQLVESGGGLVQAAGSLRLSCAASGRIFSAYAMGWYRQAPGKEREFVAAITQSGGSTYYAESVKGRFTISRDNAKNTVYLQMNSLKPEDTAVYYCAAGDAYYTEALPFGEYDYWGQGTQVTVSS"
assay_readout = "polyreactivity (PSR sort gate)"
recorded_measurement = "low polyreactivity"

[[record]]
seq_string = "QVQLVESGGGLVQAGGSLRLSCAASGSIFTPYTMVWYRQAPGKERELVAAIRPNSGSTYYADSVKGRFTISRDNAKNTVYLQLNSLKPEDTAVYYCNAQCYGPGGGYFWSYDYWGQGTQVTVSS"
assay_readout = "polyreactivity (PSR sort gate)"
recorded_measurement = "low polyreactivity"

[[record]]
seq_string = "QVQLVESGGGLVQAGGSLRLSCAASGRIFVHYAMGWYRQAPGKERELVAAITSGSSTNYADSVKGRFTISRDNAKNTVYLQMNSLKPEDTAVYYCAADYSVHLVRDRWFDYWGQGTQVTVSS"
assay_readout = "polyreactivity (PSR sort gate)"
recorded_measurement = "low polyreactivity"


###

experiment: yeast display, Sf9 membrane polyspecificity reagent, FACS + sequencing; frameworks hold sequencing errors
assay.readout: polyreactivity (PSR sort gate)

[[record]]
seq_string = "QVQLVESGGGLVQAGGSLRLSCAASGRTFYRSVMGWYRQAPGKERELVAAITPGGSTYADSVKGRFTISRDNAKKTVSLQMNSLKPEDTAVNYCNKRKASSSGYNYWGQVTQVTVSS"
assay_readout = "polyreactivity (PSR sort gate)"
recorded_measurement = "low polyreactivity"

[[record]]
seq_string = "QVQLVESGGGLVQAGGSLSLSCAASGIIFYNYAMGWYRQAPGKERELVAAISSSGGRTYYAESVKGRFTISRDNAKNTVYLQMNSLKPEDTAVYYCAAYVWAYYVPYNYGYWGQGTQVTVSS"
assay_readout = "polyreactivity (PSR sort gate)"
recorded_measurement = "high polyreactivity"

[[record]]
seq_string = "QVQLVESGGGLVQAGGSLRLSCAASGSIFWYNTMGWYRQAPGKERELVASISWDGGTYYADSVKGRFTISRDNAKNTVYLQMNSLKPEVTAVYYCNVAWYWGYDYWGQGTQVTVSS"
assay_readout = "polyreactivity (PSR sort gate)"
recorded_measurement = "low polyreactivity"

[[record]]
seq_string = "HVQLEDSGGGLVQAGGRLRITCAASGRSSETNDMGWYRQAPGKERELVAAISSSGGSTYYADSVKGRFTISRDNAKNTVYLQMNSLQPEDTAVYYCYAVYYRTVLKIGVYEYDYWGQGTQVTVSS"
assay_readout = "polyreactivity (PSR sort gate)"
recorded_measurement = "low polyreactivity"

[[record]]
seq_string = "QVQLVESGGGLVQAGGSLRLSCAASGFTFAFYAMGWYRQAPGKERELVAAISKNDGTTYYADSVKGRFTISRHTAKNTVYLLMNSLKPEDTAVYYCAAESCYPVYTYVSSGDYWGQGTQVTVSS"
assay_readout = "polyreactivity (PSR sort gate)"
recorded_measurement = "low polyreactivity"

[[record]]
seq_string = "QVQLVESGGGLVQAGGSLRLSCAASGSILTYNFMGWYRQAPGKERELVASISWSGGRTYYADSVKGRFTISRDNAKNTVYLQMNSLKPEDTAAAYCAVSQSWYWYYASDYWGQGTQVTVSS"
assay_readout = "polyreactivity (PSR sort gate)"
recorded_measurement = "low polyreactivity"

[[record]]
seq_string = "QVQLVESGGGLVEAGGSLRLSCAASGRTFANNAMGWYRQAPGKERELVARISNSGSTNYADSVKGRFTISRDNANNTVYLQMNSLNPEDTAVYYCAARIVRLYSRYDYWGQGTQVTVSS"
assay_readout = "polyreactivity (PSR sort gate)"
recorded_measurement = "low polyreactivity"

[[record]]
seq_string = "QVQLVESGGGLVQAGGSLRLSCAASGRMFTYYAMGGYRQAPGKERELVAAINRGVVTTYYADSVKGRFTISRDHAKNTVDLQMNSLKPEDTAVYYCAADWFAANYYVNPVSALDYWGQGTQVTVSS"
assay_readout = "polyreactivity (PSR sort gate)"
recorded_measurement = "low polyreactivity"

[[record]]
seq_string = "QVQLVESGGGLVQAGGSLRLSCAASGFTFYRYAMGWYRQAPGKERELVAALSGSGGSTYYADSVKGPFTISRDNAKTTVYLQMNSLNPEDTAVYYCNTVWFYGAKYDYWGQGTQVTVSS"
assay_readout = "polyreactivity (PSR sort gate)"
recorded_measurement = "high polyreactivity"

[[record]]
seq_string = "QVQLVESGGGLVQAGGSLRLSCAASGRTFLRYAMGWYRQAPGTERELVAAISWSGGRTYYADSVKGRFTISRDNAKNTVYLQMNSLKPEDTAVYYCNKVVLYGAHYYYWGQGTQVTVSS"
assay_readout = "polyreactivity (PSR sort gate)"
recorded_measurement = "high polyreactivity"

[[record]]
seq_string = "QVQLGESGGGLVQAGGSLRLSCAASGFTFAYYAMGWYRQAPGKERELVAAISERGGSTYYADSVKGRFTISRDNAKNTVYLQMNILKPEDTAVYYCARTFWDYPWYQSSYYSWGQGTQVTLSS"
assay_readout = "polyreactivity (PSR sort gate)"
recorded_measurement = "low polyreactivity"


###

experiment: yeast display, Sf9 membrane polyspecificity reagent, FACS + sequencing; frameworks hold sequencing errors
assay.readout: polyreactivity (PSR sort gate)

[[record]]
seq_string = "QVQLVESGGGLVQAGGSLRLSCAASGSIFYVYAMGWYRQAPGNERELVADITTRDGDTYYADSVKGRFTISRDNAKNTVYFQMNSLKPEDTAVYYCAADLNAYPQRAYDYWGQGTQVTVSS"
recorded_measurement = "low polyreactivity"

[[record]]
seq_string = "QVQLVESGGGLVQAGGSLRLSCAASGRIFYYNGMGWYRQAPGKERELVAAISRGGSTYYADSVKGRFTISRDNAKNTVYLQMNSLKPEDTAVYYCAARWKPPYWGRYYYWGQGTQVTVSS"
recorded_measurement = "high polyreactivity"

[[record]]
seq_string = "QVQHVESGGGLVQAGGSLRLSCAASGLTFPYYVMGWYRQAPGKERELVAAIDDGGGSTYYADSVKGRFTISRDNAKNTVYLQMNSLKPVDTAVYYCAAQVDYLAHYGYWGQGTQVTVSS"
recorded_measurement = "low polyreactivity"

[[record]]
seq_string = "EVQLVESGGGLVQPGGSLRLSCAASGYIYRRYRMGWYRQAPGKGREFVAAISGGSSTNYADSVTGRFTISRDNSKNTVFLQMNSLRAEDTAVYYCAAYKIDSYPRVYWGQGTQVTVSS"
recorded_measurement = "low polyreactivity"

[[record]]
seq_string = "QVQLVESGGGLVQAGGSLRLSCAASGLTFTSYAMGWYRQAPGKERELVAAITSGGSTYFADSVKGRFTISRDNAKNTVYLQMNSLKPEDTAVYYCNVTVYTRWYRSHSFWSTFRMDYWGQGTQVTVSS"
recorded_measurement = "low polyreactivity"

[[record]]
seq_string = "QVQHVESAGGLVQAGGILRLSCAASGRIFYPYAMGWYRQAPGKERELVAAISSSGGSTYYADSVKGRFTISRDNAKNTVSLQMNSLKPEDTAFYYCNKDFQYYPRIFGYWGQGTQVTVSS"
recorded_measurement = "high polyreactivity"

[[record]]
seq_string = "QVQLVESGGGLVQAGGSLRLSCAASGSIFVFYARGWSRQAPGKERELVAAITSGGRTYYADSVKGRFTISRDNAKNTVYLQMNSLKPEDTAVYYCNAVRFYSIGLGQDDYWGQGTQVTVSS"
recorded_measurement = "low polyreactivity"

[[record]]
seq_string = "KVQLVESGGCLVQAGGSLSLSCAASGSIFAVYAMGWYRQAPGKERELVAAITLSGGSTYAYSVKGRFTISRDNAKNTFYLQMKSLKPEDTAVYYCNAVSANYDYVDYEYWGQGTQVNVSS"
recorded_measurement = "low polyreactivity"

[[record]]
seq_string = "QVQLEESGGGLVQAGGSLRLSCAASGNILFKYAMGWNRQAPGKERELVASITSRGGSTYYADSVKGRFTISRDNAKNTVYLQMNSLKPEDTAVYYCAVDADEVTFDYWGQGTQVTVSS"
recorded_measurement = "low polyreactivity"

[[record]]
seq_string = "QVQLVESGGGLVQAGGSLRLSCAASGFTFDYNAMGWYRQAPGKERELVAVISSSGSRTYYADSVKGRFTISRDIAKITVYLQINSLNPEDTAVYYCAAARIGTRDYWGQGTQVSVSS"
recorded_measurement = "high polyreactivity"

[[record]]
seq_string = "QVQIVESGGGLVQAGGSLRLSCAASGRIFLPYAMGWYRQAPGKERELVAAITQSGVITSYADSVKGRFTISRDNAKNTVYLQMNSLKPEDTAVYYCATVRTVIVFRFPYSYGYWGQGTQVTVSS"
recorded_measurement = "high polyreactivity"

[[record]]
seq_string = "QVQLVESGGGLVQAGGSLRLSCAASGRIFGWYAMGWYRQAPGKERELVAAISSGGRTNYADSVKGRFTISRDNAKNTVYLQMNSLKPEDTAVYYCNARRTYLPYKFGYDYWGQGTQVTVSS"
recorded_measurement = "low polyreactivity"

[[record]]
seq_string = "QVQLHESGGGLVQAGGSLLSCAASGTISYYREMGWYRQAPGKERELVAGIGVGTITYYADSVKGRFTISRDNAKNTVYLHMNSLKPEDTAVYYCAAHFDGNDSHAYWGQGTQVTVSS"
recorded_measurement = "low polyreactivity"

[[record]]
seq_string = "QVQLVESGGGLVQAGGSLRLSCAASGSTFDKNDMGWYRQAPGRERELVAAITSSGSSTYYADSVKGRFTISRDNAKNTVYLQMNSLKPADTAVYYCAADKYYYDRLSPSGDYWGQGTQVTVSS"
recorded_measurement = "low polyreactivity"

[[record]]
seq_string = "QVQLEDSGGGLVQAGGSLRLTCAASGRIFYPNVIGRNRQAPGKERELVAAIRTSGTGTYYADSVKGRFTISRDNAMNNVYLQMNSQKTQDTAGYYCAADYGYNRYWWWDWSYEYGYEYWGQGTQVTVSS"
recorded_measurement = "high polyreactivity"

[[record]]
seq_string = "QVQLVESGGGLVQAGGSLRLSCAASGFIFGYYTMGWYRQAPGKERELVAGISYSGGSTYYADSVKGRFTISRDNAKNTVYLQMNSLKPEDTAVYYCNRADYRASYSGQGSYDYWGQGTQVTVSS"
recorded_measurement = "high polyreactivity"

[[record]]
seq_string = "QVQLVESGGGLVQAGGSLRLTCAASGFIVKYNAMGWYRQAPGKERELVAAITSTGSTNYADSVKGRFTISRDNAKNTVYFQMISLKPEDNAVYYCAAYWRSRNRFNWGQGTQVTVTS"
recorded_measurement = "high polyreactivity"

[[record]]
seq_string = "QVQLVESGGGLVQAGGRLRFSCAASGSTFVNNAMGWYRQAPGKERELVAAISRRGGRTYYADSEKGRFTISRDNAKNTVYLQMKSLKPEDTAVYYCAADESRYDYWGQGTQVTVSS"
recorded_measurement = "high polyreactivity"

[[record]]
seq_string = "QVQLVESGGGLVQAGGSLRLSCADSGFIIFRYAMGWYRQAPGKERELVAAITDDGSTYADSVKGRFTISRDNAKNTVYLQMNSLKPEDTAVYYCNVQSKSSYWWFGYDYWGQRTQVTVSS"
recorded_measurement = "low polyreactivity"

[[record]]
seq_string = "QDQLVESGGGLVQAGGSLRLSCAASGRNFKYYGMRRYRQAPVKERDLVAAISRGSSTNYADSVKGRFTISRDNAKKTVYLQMYSLKPEDTAVYYCAVSLRRGGSGYAYDNWGQGTQVTVSA"
recorded_measurement = "high polyreactivity"

[[record]]
seq_string = "QVQLVESGGGLVQAGGSLRLSCAAAGSIFYYKTMGWYRQAPGKEREMVAAISWSGGSTSYADSVKGRFTISRDNAKNTVYLQMNSLKPEDTAVYYCNVDYGVHVTARDYWGQGTQVTVSS"
recorded_measurement = "low polyreactivity"

